Molecular target: Plasmodium falciparum calcium-dependent protein kinase 1 (CDPK1) (Plasmodium falciparum)
Construct: 6-Histidine (N); made in house
Sequence (P62344 whole entry): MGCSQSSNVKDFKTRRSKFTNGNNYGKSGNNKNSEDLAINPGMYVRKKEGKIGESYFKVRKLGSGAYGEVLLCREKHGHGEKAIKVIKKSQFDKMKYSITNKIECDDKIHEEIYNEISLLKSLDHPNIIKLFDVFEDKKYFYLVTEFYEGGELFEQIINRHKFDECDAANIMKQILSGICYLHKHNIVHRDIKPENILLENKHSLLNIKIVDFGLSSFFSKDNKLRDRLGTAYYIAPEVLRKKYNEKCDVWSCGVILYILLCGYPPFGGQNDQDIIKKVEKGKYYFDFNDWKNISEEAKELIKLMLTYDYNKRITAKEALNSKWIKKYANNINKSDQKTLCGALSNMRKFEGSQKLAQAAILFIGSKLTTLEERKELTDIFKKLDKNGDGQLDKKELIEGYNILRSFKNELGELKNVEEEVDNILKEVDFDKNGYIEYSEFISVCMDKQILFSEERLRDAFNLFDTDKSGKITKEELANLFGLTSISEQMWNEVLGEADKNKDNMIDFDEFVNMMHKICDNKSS
Test: CDPK1 Kinase-Glo ATP-consumption screen and dose-response
Format: biochemical
Conditions: hits below 1 uM; read-out: CDPK1 IC50
Observation Type: IC50 (nM)

Example cases with answers are listed next.
>>> number("CC(=O)Nc1cccc(Nc2nccc(Nc3ccc(Oc4ccccc4)cc3)n2)c1.Cl [TCMDC-138590]")
425
>>> number("CN1CCN(CCCNCc2ccc(Nc3nccc(Nc4ccc(Oc5ccccc5)cc4)n3)cc2)CC1 [TCMDC-138621]")
139
>>> number("CCn1c(-c2nonc2N)nc2c(-c3cccc(NC(=O)Nc4ccc(C(F)(F)F)cc4)c3)ncc(OCCCN)c21.O=C(O)C(F)(F)F [TCMDC-136179]")
959

I = CC(C)(CNCc1ccccc1)c1nc(-c2ccc(Cl)c(O)c2)c(-c2ccncc2)[nH]1.Cl [TCMDC-140389]
II = NCCNC(=O)c1ccc(-c2cnc3[nH]cc(-c4ccc(C(N)=O)cc4)c3c2)cc1 [TCMDC-132359]
III = Cc1cc(Nc2ncc(Cl)c(Nc3ccccc3C(N)=O)n2)n[nH]1 [TCMDC-134170]
Ascending sort, IC50. Provide your answer as the labels ordered per the instruction.
II, III, I
(II: 24 nM, III: 76 nM, I: 190 nM)
